Target: Neuronal acetylcholine receptor; alpha4/beta2 (Rattus norvegicus) (UniProt P09483+P12390)
Test: Antagonist activity at rat alpha4beta2 nAChR expressed in Xenopus laevis oocytes assessed as inhibition of acetylcholine-induced mean current response by measuring remaining current at 100 uM by two-electrode voltage clamp electrophysiology assay relative to control; values are per cent of control
REPORTED ENDPOINT: residual activity (%)
Please state the figure in %; there is no need to write the unit.

// worked examples, residual activity included
COc1ccc(-c2cncc([C@H]3C[C@H]4CC[C@H]3N4)c2)cn1 (racemic)
4.5
Nc1cc(-c2cncc([C@H]3C[C@H]4CC[C@H]3N4)c2)ccn1 (racemic)
5.2
Fc1cc(-c2cncc([C@H]3C[C@H]4CC[C@H]3N4)c2)ccn1 (racemic)
8.1
c1cc(-c2cncc([C@H]3C[C@H]4CC[C@H]3N4)c2)ccn1 (racemic)
3.9

Query :: Determine its reported residual activity: Clc1ccc(-c2cncc([C@H]3C[C@H]4CC[C@H]3N4)c2)cn1 (racemic)
Result :: 4.8

Query :: Determine its reported residual activity: Nc1ccc(-c2cncc([C@H]3C[C@H]4CC[C@H]3N4)c2)cn1 (racemic)
Result :: 5.7

Query :: Determine its reported residual activity: Clc1cc(-c2cncc([C@H]3C[C@H]4CC[C@H]3N4)c2)ccn1 (racemic)
Result :: 5.7

Query :: Determine its reported residual activity: c1cncc(-c2cncc([C@H]3C[C@H]4CC[C@H]3N4)c2)c1 (racemic)
Result :: 5.3

Query :: Determine its reported residual activity: Fc1ccc(-c2cncc([C@H]3C[C@H]4CC[C@H]3N4)c2)cn1 (racemic)
Result :: 7.9

Query :: Determine its reported residual activity: COc1cc(-c2cncc([C@H]3C[C@H]4CC[C@H]3N4)c2)ccn1 (racemic)
Result :: 4

----------
Target: Neuronal acetylcholine receptor; alpha3/beta4 (Rattus norvegicus) (UniProt P04757+P12392)
Assay: Agonist activity at rat alpha3beta4 nAChR expressed in Xenopus laevis oocytes assessed as mean current response at 100 uM by two-electrode voltage clamp electrophysiology assay relative to acetylcholine
Type: cell-based
Here, each record is paired with measured Activity data.
Remember to follow the number with its unit.

// worked examples, Activity included
CN1CCC[C@H]1c1cccnc1 [NICOTINE]
37%
Clc1ccc(-c2cncc([C@H]3C[C@H]4CC[C@H]3N4)c2)cn1 (racemic)
3.1%
Nc1cc(-c2cncc([C@H]3C[C@H]4CC[C@H]3N4)c2)ccn1 (racemic)
1.2%

Query :: Determine its reported Activity: COc1cc(-c2cncc([C@H]3C[C@H]4CC[C@H]3N4)c2)ccn1 (racemic)
Result :: 6.1%

Query :: Determine its reported Activity: Fc1ccc(-c2cncc([C@H]3C[C@H]4CC[C@H]3N4)c2)cn1 (racemic)
Result :: 5.5%

Query :: Determine its reported Activity: Fc1cc(-c2cncc([C@H]3C[C@H]4CC[C@H]3N4)c2)ccn1 (racemic)
Result :: 9.5%

----------
Biological target: Neuronal acetylcholine receptor; alpha3/beta4 (Rattus norvegicus) (UniProt P04757+P12392)
Experiment: Agonist activity at rat alpha3beta4 nAChR expressed in Xenopus laevis oocytes assessed as mean current response at 100 uM by two-electrode voltage clamp electrophysiology assay relative to acetylcholine
Type: cell-based
Here, each record is paired with measured Activity data.
Please state the figure in %; there is no need to write the unit.

// worked examples, Activity included
Nc1ccc(-c2cncc([C@H]3C[C@H]4CC[C@H]3N4)c2)cn1 (racemic)
0
c1cc(-c2cncc([C@H]3C[C@H]4CC[C@H]3N4)c2)ccn1 (racemic)
9.5
Clc1ccc([C@H]2C[C@H]3CC[C@H]2N3)cn1
97

// next item, Activity requested
Query :: Determine its reported Activity: c1cncc(-c2cncc([C@H]3C[C@H]4CC[C@H]3N4)c2)c1 (racemic)
Result :: 4.5
